- Tested on: HOP-92 NSCLC
- experiment.description: NCI tumour cell line growth inhibition, 48 h
Provide the reported TGI of each item.

Q: Would you kindly share the measured TGI for COc1ccc2ccc([Se]c3ccc4ccc(OC)cc4c3)cc2c1 ?
Ans: > 100 µM

Q: Would you kindly share the measured TGI for C/C=C(/C)C(=O)O[C@H]1C(C)=C[C@]23C(=O)[C@@H](C=C(COC(C)=O)[C@@H](O)[C@]12O)[C@H]1[C@@H](C[C@H]3C)[C@@]1(C)OC(=O)/C(C)=C\C ?
Ans: 6.34 µM

Q: Would you kindly share the measured TGI for c1ccc(CCN(Cc2nc3ccccc3[nH]2)Cc2nc3ccccc3[nH]2)cc1 ?
Ans: 30.7 µM

Q: Would you kindly share the measured TGI for CCCCc1c2c(nc3c1CCC/C3=C\c1ccccc1)C(=O)C(CN(C)C)CC2 (stereo unspecified) ?
Ans: 33.5 µM

Q: Would you kindly share the measured TGI for CCCCCCCCCCCCCCCCP(=O)(O)OP(=O)(O)OCC1OC(n2cnc3c(N)ncnc32)C(O)C1O (stereo unspecified) ?
Ans: 42 µM

Q: Would you kindly share the measured TGI for O=[N+]([O-])C1C2C=CC(C2)[C@H]1c1ccccc1Cl (stereo partly specified) ?
Ans: > 75.6 µM

Q: Would you kindly share the measured TGI for CC(O)C(O)C(N)CC=O (stereo unspecified) ?
Ans: > 500 µM

Q: Would you kindly share the measured TGI for [N-]=[N+]=NC1C(Br)C(=O)NC(=O)N1[C@H]1C[C@H](O)[C@@H](CO)O1 (stereo partly specified) ?
Ans: > 100 µM

Q: Would you kindly share the measured TGI for O=C(Nc1nc(C23CC4CC(CC(C4)C2)C3)cs1)c1cc2cc(Br)cc(Br)c2oc1=O ?
Ans: > 100 µM

Q: Would you kindly share the measured TGI for COc1ccc(OC)c2nc3c(C(=O)NCCN(C)C)cccc3nc12 ?
Ans: 50.2 µM

Q: Would you kindly share the measured TGI for C=C1C(=O)OC2C1C(OC(=O)/C(C)=C/C)CC1(C)C(=O)CCC(=C)C21 (stereo unspecified) ?
Ans: 19.9 µM

---

- System: SNB-19 CNS
- experiment.description: NCI tumour cell line growth inhibition, 48 h; in the data active means GI50 below about 0.43 µM; inactive means the rest
The categories you may choose from are TRUE for active, FALSE for inactive

Q: Can you look up the reported call for O=C1CCC2(C=C(Br)C(=O)C(Br)=C2)O1 for me?
Ans: FALSE

Q: Can you look up the reported call for O=C(Nc1ncc(Cc2ccccc2Cl)s1)c1ccc2c(c1)OCCO2 for me?
Ans: FALSE

Q: Can you look up the reported call for N.N.NC(CS)C(=O)[O-].NC(CS)C(=O)[O-].[Pt+4] (stereo not given) for me?
Ans: FALSE

Q: Can you look up the reported call for COc1ccc(/C=C\c2cc(OC)c(OC)c(OC)c2)cc1OCC(=O)Nc1nc2ccc(C(F)(F)F)cc2s1 for me?
Ans: FALSE

Q: Can you look up the reported call for O=C(Oc1ccc(CCl)cc1)c1ccccc1 for me?
Ans: TRUE

---

- System: HOP-62 NSCLC
- experiment.description: NCI tumour cell line growth inhibition, 48 h
quantity: TGI

Q: Would you kindly share the measured TGI for CC1(C)OCC(C2OC(N3O[C@H](CI)C[C@@H]3c3ccccc3)C3OC(C)(C)OC23)O1 (some centres undefined) ?
Ans: > 100 µM

Q: Would you kindly share the measured TGI for C/C=C(/C)C(=O)O[C@H]1C(C)=C[C@]23C(=O)[C@@H](C=C(COC(C)=O)[C@@H](O)[C@]12O)[C@H]1[C@@H](C[C@H]3C)[C@@]1(C)OC(=O)/C(C)=C\C ?
Ans: 5.25 µM

Q: Would you kindly share the measured TGI for O=C(/C=C/c1ccc(O)cc1)NCCc1ccc(O)cc1 ?
Ans: > 12.5 µM

Q: Would you kindly share the measured TGI for N#C/C=C1\C=CC(O)C(O)C1OC1OC(CO)C(O)C(O)C1O (centres undefined) ?
Ans: > 100 µM
